Data origin, for the record: PubChem BioAssay (NCI)

Test system: LOX IMVI melanoma
PROTOCOL_DESCRIPTION: NCI-60 one-dose screen, 48 h (100 = growth as untreated, 0 = no growth, -100 = all killed)
STATED_CONDITIONS: 10 µM unless noted
The panel holds about 83,000 compounds, 20% with a hit somewhere; the sample as a whole holds those more often.
# growth >= 20% gives TRUE, anything below gives FALSE

Answered cases to consult:
COMPOUND	ASSIGNED_CATEGORY
COc1ccc(C(=O)/C=C/c2cn(-c3ccccc3)nc2-c2cccc(Nc3ccnc4cc(Cl)ccc34)c2)cc1	TRUE
CC(=O)OC1Oc2cc(C)c(C)cc2-c2oc(=O)c(-c3cc4ccccc4oc3=O)cc21 (centres undefined)	TRUE
NC(N)=N/N=C\c1cccc(OCc2ccccc2)c1	TRUE
COc1ccc([C@@H]2[C@@H](Cl)C(=O)N2c2cc(OC)c(OC)c(OC)c2)cc1C	TRUE
CC(=O)c1cc(C(=O)c2ccc3c(c2)Sc2ccccc2N3)c2c(C)cccn12	FALSE

Prompt: Please indicate if the recorded growth for C[C@@H]1C[C@H](N)C[C@H](c2ccncc2NC(=O)c2ccc(F)c(-c3c(F)cccc3F)n2)C1 meets or exceeds 20%.
Response: TRUE

Prompt: Is it the case that O=C(Nc1ccc(Oc2ccc(NC(=O)Nc3ccccc3Cl)cc2)cc1)Nc1ccccc1Cl has growth reaching or exceeding 20%?
Response: TRUE

Prompt: Threshold query (growth >= 20%) on COc1ccc2c(c1)N(CCO)C1=C(C(=O)OC1)C2c1cccc(Br)c1 (centres undefined)
Response: TRUE

Prompt: Kindly determine if growth recorded for COCCOCCOCc1n(Cc2ccc3ccccc3n2)c2ccccc2[n+]1Cc1ccc2ccccc2c1 is above or exactly 20%.
Response: FALSE
